Recorded values, source ChEMBL document CHEMBL1201862.

- Test system: NCI-H460
- METHOD: NCI tumour cell line growth inhibition, 48 h
Calls of active or inactive are those of the source. No stated cut-off is given here; in the data, active = GI50 up to about 1.1 µM and inactive = higher. Where a SMILES comes first, the peptide text is derived from it. The star is where a group is joined. Boc = CC(C)(C)OC(=O)*
Use one of these outcomes when replying: active, inactive

Solved entries (count: 5):
[[record]]
compound = "CSc1nc2ccccc2c(=O)n1-c1cccc(C)c1"
classification = "inactive"

[[record]]
compound = "N=C1/C(=C/c2ccco2)C(=O)N=C2SC=NN12"
classification = "inactive"

[[record]]
compound = "CC(=O)O[C@H]1CCC2[C@@H]3CCC4Nc5oncc5C[C@]4(C)C3CC[C@@]21C (some centres not stated)"
classification = "inactive"

[[record]]
compound = "CC(C)(C)OC(=O)NC(Cc1ccc(O)cc1)C(=O)N1CCCC1C(=O)O (stereo not drawn) (Boc-Tyr-Pro-OH; configuration not given here)"
classification = "inactive"

[[record]]
compound = "CN(C)/C=N/n1c2ccccc2c2ccccc21"
classification = "inactive"


For C/C=C(/C)C(=O)O[C@@H]1CCN2CC[C@H](COC(=O)/C(=C/C)CO)C12 (some centres not stated) , which call appears in the assay record?
inactive

Identify the outcome logged in this assay for the compound shown: O=c1c2cc([N+](=O)[O-])ccc2n2n1Cc1ccccc1C2
inactive

So what was the verdict on O=C(O)CNC(=O)c1ccc(-c2ccccc2)cc1 in this test?
inactive

Please share the test call associated with COC(=O)c1cc2c(cc1Cl)Sc1nnc(Nc3ccccc3)n1S2(=O)=O .
inactive

Per the records of this test, what outcome belongs to Cc1ccc(C[P+]2(c3ccccc3)CCCCC2)cc1.[O-][Cl+3]([O-])([O-])[O-] ?
inactive

Any idea what this test logged for Nc1nc(-c2ccccc2)c(CC(=O)O)s1 ?
inactive

Hello, I am checking results. What call was entered for CCN(CC)CCCNc1c2cc(OC)ccc2nc2cccc([N+](=O)[O-])c12 ?
active

Outcome? Nc1nc(Cl)c(Cl)c(NCC2(O)CCC2)n1
inactive

###

- Tested on: SK-OV-3
- METHOD: NCI tumour cell line growth inhibition, 48 h
Calls of active or inactive are those of the source. Rule as the data show it: active = GI50 up to about 1.1 µM and inactive = higher.
Below: a set of entries, each annotated with reported GI50.

[[record]]
compound = "O=C(O)CN1CCN2CCOCCOCCN(CC1)CCN(CC(=O)O)CC2"
measured_value = "> 100 µM (inactive)"

[[record]]
compound = "CCNC(=O)C(C)C1CCC2(C)C=CC(=O)C(C)=C2C1O (centres undefined)"
measured_value = "> 100 µM (inactive)"

[[record]]
compound = "Nc1ccc(C(=O)N/C(=C\\C=C\\c2ccco2)c2nc3c(O)nc(S)nc3[nH]2)cc1"
measured_value = "> 100 µM (inactive)"


// next entry
Output GI50 of C=C(c1ccc2[nH]c(NC(=O)OC)nc2c1)c1cccs1
0.135 µM (active)

###

- Tested on: SNB-19
- METHOD: NCI tumour cell line growth inhibition, 48 h
Calls of active or inactive are those of the source. Cut-off read from the data, not from the text of the source: active = GI50 up to about 1.1 µM and inactive = higher.
Property: GI50; scope: individual molecules

Completed entries (count: 2):
[[record]]
molecule = "CCNC(=O)C(C)C1CCC2(C)C=CC(=O)C(C)=C2C1O (stereo not given)"
quantity = "GI50"
measured_value = "> 100 µM (inactive)"

[[record]]
molecule = "CCOC(=O)/C=C(/N=P(c1ccccc1)(c1ccccc1)c1ccccc1)C(F)(F)F"
quantity = "GI50"
measured_value = "> 10 µM (inactive)"


Dear colleague, please send me the reported GI50 for Cc1nc2ccc(N)cc2nc1O when you can.
> 100 µM (inactive)

Consider the molecule O=c1cc(N2CCN(c3cc(=O)n4ccccc4n3)CC2)oc2ccccc12 and give its recorded GI50.
> 55.5 µM (inactive)

Quote GI50 reported for COc1ccc(C(=O)O)c(Br)c1OCc1ccccc1 please.
> 100 µM (inactive)

# return recorded GI50 for input Cc1ccc(-c2cc(=O)c3cc(C)c(C)c(C(=O)O)c3o2)cc1[N+](=O)[O-]
> 100 µM (inactive)

Quick one: give measured GI50 for CC(C)(C)[Si](C)(C)OCC1OC(n2ccc(=O)[nH]c2=O)C(O[Si](C)(C)C(C)(C)C)[C@]12O[C@@H]2CO (stereo not given in full)
10.3 µM (inactive)

// Input: [O-][n+]1onc2c1/C(=N/O)CCC2 . Output its GI50 only.
> 100 µM (inactive)

Respond only with GI50 recorded for N#Cc1c(-c2ccc([N+](=O)[O-])cc2)cc(-c2ccc(Nc3ccnc4cc(C(F)(F)F)ccc34)cc2)[nH]c1=O
24.4 µM (inactive)

Determine its reported GI50: C=C(c1ccc2[nH]c(NC(=O)OC)nc2c1)c1cccs1
0.198 µM (active)
